tested on: SARS-COV-2; assay: microbe, parasite or virus in culture; type: cell-based; conditions: Severe acute respiratory syndrome coronavirus 2; Vero cells, 24 hours infection; read-out: SARS-COV-2 inhibition (IC50)
Measure: IC50 (nM)

Mol: COc1cc2cc3c(c(N4C[C@@H](C)O[C@@H](C)C4)c2cc1OC)C(=O)OC3
Test Target: SARS-COV-2
Measure: IC50
Result Units: nM
Qualifier Operator: >
Quantitative Result: 50000
//
Mol: COc1cc2cc3c(c(-c4ccc(N(C)CCc5cn(C)c6ccccc56)nc4)c2cc1OC)C(=O)OC3
Test Target: SARS-COV-2
Measure: IC50
Result Units: nM
Qualifier Operator: =
Quantitative Result: 2430
//
Mol: COCCN(CCOC)c1ccc(-c2c3c(cc4cc(OC)c(OC)cc24)COC3=O)cn1
Test Target: SARS-COV-2
Measure: IC50
Result Units: nM
Qualifier Operator: =
Quantitative Result: 19100
//
Mol: COc1cc2cc3c(c(-c4cc5c(cc4OC(=O)c4ccccn4)OCO5)c2cc1OC)C(=O)OC3
Test Target: SARS-COV-2
Measure: IC50
Result Units: nM
Qualifier Operator: =
Quantitative Result: 1230
//
Mol: COc1cc2cc3c(c(-c4cnc(N5CCOCC5)nc4)c2cc1OC)C(=O)OC3
Test Target: SARS-COV-2
Measure: IC50
Result Units: nM
Qualifier Operator: =
Quantitative Result: 1470
